Where these numbers come from: ChEMBL document CHEMBL1132937

Molecular target: 72 kDa type IV collagenase (Homo sapiens)
Sequence (P08253 whole entry): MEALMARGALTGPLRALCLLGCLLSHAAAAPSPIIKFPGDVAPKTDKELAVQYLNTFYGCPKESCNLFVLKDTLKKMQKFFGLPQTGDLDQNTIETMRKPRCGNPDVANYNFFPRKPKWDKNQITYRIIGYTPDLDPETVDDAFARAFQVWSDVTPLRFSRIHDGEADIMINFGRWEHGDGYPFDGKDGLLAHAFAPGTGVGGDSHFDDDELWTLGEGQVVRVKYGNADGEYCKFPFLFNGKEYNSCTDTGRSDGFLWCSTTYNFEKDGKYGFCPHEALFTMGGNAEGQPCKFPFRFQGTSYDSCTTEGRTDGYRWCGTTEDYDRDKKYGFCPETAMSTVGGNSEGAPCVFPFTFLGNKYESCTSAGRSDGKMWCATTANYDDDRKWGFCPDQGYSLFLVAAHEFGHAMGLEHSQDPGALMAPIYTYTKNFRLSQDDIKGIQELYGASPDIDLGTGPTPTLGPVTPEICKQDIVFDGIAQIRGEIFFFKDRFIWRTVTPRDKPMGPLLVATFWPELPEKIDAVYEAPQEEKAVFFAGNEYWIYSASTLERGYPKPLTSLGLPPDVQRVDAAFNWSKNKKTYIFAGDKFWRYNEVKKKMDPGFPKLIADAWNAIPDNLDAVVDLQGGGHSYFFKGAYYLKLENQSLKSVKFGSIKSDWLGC
Cut-off 20 nM on Ki: below means t, at or above means f.

Please review the following examples before continuing.
Entry Smiles	Classification
O=C(CN(Cc1ccc([N+](=O)[O-])cc1)S(=O)(=O)c1cccc(NC(=O)NS(=O)(=O)c2ccc(Cl)cc2)c1)NO	t
O=C(CN(Cc1ccc([N+](=O)[O-])cc1)C(=O)NS(=O)(=O)c1ccc(Cl)cc1)NO	t
O=C(CN(Cc1ccc([N+](=O)[O-])cc1)S(=O)(=O)c1ccccc1[N+](=O)[O-])NO	t
O=C(O)CN(Cc1ccc([N+](=O)[O-])cc1)S(=O)(=O)c1ccc(NC(=O)NS(=O)(=O)c2ccc(Cl)cc2)cc1	f
CC(C)(C)OC(=O)Nc1ccc(S(=O)(=O)N(CC(=O)NO)Cc2ccc([N+](=O)[O-])cc2)cc1	t
O=C(CN(Cc1ccc([N+](=O)[O-])cc1)S(=O)(=O)c1ccc(Br)cc1)NO	t
Cc1ccccc1S(=O)(=O)NC(=O)Nc1cccc(S(=O)(=O)N(CC(=O)NO)Cc2ccc([N+](=O)[O-])cc2)c1	t

Let's switch to this compound now.
Record `Cc1cc(C)c(S(=O)(=O)N(CC(=O)NO)Cc2ccc([N+](=O)[O-])cc2)c(C)c1` : is its Ki strictly below 20 nM?
f

###

Target: Interstitial collagenase (Homo sapiens)
Sequence (P03956 whole entry): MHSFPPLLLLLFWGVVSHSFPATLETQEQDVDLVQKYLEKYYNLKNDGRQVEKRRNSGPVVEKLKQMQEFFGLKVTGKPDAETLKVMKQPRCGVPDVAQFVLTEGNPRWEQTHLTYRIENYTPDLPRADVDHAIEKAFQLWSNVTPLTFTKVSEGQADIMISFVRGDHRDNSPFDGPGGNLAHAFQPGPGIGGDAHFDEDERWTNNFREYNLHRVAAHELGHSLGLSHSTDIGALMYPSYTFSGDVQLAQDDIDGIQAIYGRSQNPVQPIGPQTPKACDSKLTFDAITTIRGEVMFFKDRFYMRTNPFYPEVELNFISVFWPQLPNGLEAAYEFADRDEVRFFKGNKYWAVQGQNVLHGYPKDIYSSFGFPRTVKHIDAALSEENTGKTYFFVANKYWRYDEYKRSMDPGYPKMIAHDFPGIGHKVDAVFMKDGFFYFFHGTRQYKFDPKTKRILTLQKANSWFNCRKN
Label Condition met when Ki is strictly below 0.05 µM; otherwise label Condition not met.

Solved cases (5 shown):
Entry Smiles	Target Desc	Classification
O=C(CN(Cc1ccc([N+](=O)[O-])cc1)S(=O)(=O)c1ccccc1[N+](=O)[O-])NO	Interstitial collagenase (Homo sapiens)	Condition not met
O=C(CN(Cc1ccc([N+](=O)[O-])cc1)C(=S)NC(=O)c1ccccc1)NO	Interstitial collagenase (Homo sapiens)	Condition met
O=C(CN(Cc1ccc([N+](=O)[O-])cc1)S(=O)(=O)c1ccc(NC(=O)NS(=O)(=O)c2ccccc2)cc1)NO	Interstitial collagenase (Homo sapiens)	Condition not met
O=C(CN(Cc1ccc([N+](=O)[O-])cc1)S(=O)(=O)c1ccc([N+](=O)[O-])cc1)NO	Interstitial collagenase (Homo sapiens)	Condition met
O=C(CN(Cc1ccc([N+](=O)[O-])cc1)C(=O)NS(=O)(=O)c1ccc(Cl)cc1)NO	Interstitial collagenase (Homo sapiens)	Condition met

is_below(Ki, 0.05 µM) for `O=C(O)CN(Cc1ccc([N+](=O)[O-])cc1)S(=O)(=O)c1cccc(NC(=O)NS(=O)(=O)c2ccccc2)c1` ?
Condition not met

Now the molecule `O=C(O)CN(Cc1ccc([N+](=O)[O-])cc1)S(=O)(=O)c1ccc(NC(=O)NS(=O)(=O)c2ccccc2)cc1`
Condition not met

Same question, `O=C(CN(Cc1ccc([N+](=O)[O-])cc1)S(=O)(=O)c1ccc(C(=O)O)cc1)NO` this time
Condition met

###

Ki reference
Target: UniProt P08253
Express your answer in µM, writing the number without its unit.

Guide cases for Ki, answers given:
Entry Smiles	Target Desc	Ki (µM)
CN(C)c1cccc2c(S(=O)(=O)N(CC(=O)NO)Cc3ccc([N+](=O)[O-])cc3)cccc12	UniProt P08253	0.041
Cc1ccc(S(=O)(=O)N(CC(=O)NO)Cc2ccc([N+](=O)[O-])cc2)cc1	UniProt P08253	0.02
O=C(CN(Cc1ccc([N+](=O)[O-])cc1)S(=O)(=O)c1ccc(F)cc1)NO	UniProt P08253	0.015
O=C(CN(Cc1ccc([N+](=O)[O-])cc1)S(=O)(=O)c1ccc(NC(=O)NS(=O)(=O)c2ccccc2)cc1)NO	UniProt P08253	0.0006

Turning now to a further compound:
Quick check: Ki of `O=C(CN(Cc1ccc([N+](=O)[O-])cc1)S(=O)(=O)c1ccc(I)cc1)NO` ?
0.019
